Reference for the values: patent US20190367619A1

Please provide measured kon for the entries that follow.
Molecular target: T1, cynomolgus galectin-10-His, WGS isoform (cynomolgus)
T1 construct: also called cynoGal10-WGS; not shown: His tag
T1 chain: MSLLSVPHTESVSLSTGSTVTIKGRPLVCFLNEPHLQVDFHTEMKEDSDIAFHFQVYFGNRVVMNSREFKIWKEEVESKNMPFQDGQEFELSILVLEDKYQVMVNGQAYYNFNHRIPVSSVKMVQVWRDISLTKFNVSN
Experiment: SPR Biacore (summary table)
Numbers only, in M⁻¹ s⁻¹.

[[record]]
binder = "10B02 scFv-human Fc (Fc fusion, also called 010B02; not shown: CH2-CH3 constant domains of human IgG1 (pUPEX50 scFv-Fc fusion vector)) scFv: QVQLVESGGGLVQPGGSLRVSCAASGFTFSYHYMNWVRQAPGKGLEWVSGISAGGGRTYYADSVKGRFTISRDNAKNTLYLQMNSLNAEDTALYYCARVHGITNDYWGQGTQVTVSSGGGGSGGGGSGGGGSQSALTQPPSVSGSPGKTVTISCAGTSSDVGYGNYVSWYQQLPGMAPKLLIYEVNKRASGITDRFSGSKSGNTAFLTISGLQSEDEADYYCASYRNSNNWVFGGGTHLTVL"
readout_number = 770000

[[record]]
binder = "7B07 scFv-human Fc (Fc fusion, also called 007B07; not shown: CH2-CH3 constant domains of human IgG1 (pUPEX50 scFv-Fc fusion vector)) scFv: QVQLVESGGGLVQPGGSLRLSCAASGFTFRSYDMSWVRQAPGKGPEWVSAIKNGGGITYYADSVKGRFTISRDNAKNTLYLQMNSLKPEDTAVYYCATTHGIGTLGFGSWGQGTQVTVSSGGGGSGGGGSGGGGSSYELTQSASVSVALTQTAKITCDGNNIGSKSAQWYQQKPGQAPALVIYADEYRPEGIPERFSGSNSGNTATLIISGAQAEDEADYYCQVWDGSAAVFGRGTHLTVL"
readout_number = "5e+07"

[[record]]
binder = "11F02 scFv-human Fc (Fc fusion, also called 011F02; not shown: CH2-CH3 constant domains of human IgG1 (pUPEX50 scFv-Fc fusion vector)) scFv: ELQVVESGGGLVQPGGSLRLSCAASGFTFSTNYMNWVRQAPGKGLEWVSGITSHGARTYYADSVKGRFTISRDNSKNTLYLQMNSLKPEDTALYYCARTDHASLDAWGQGTLVTVSSGGGGSGGGGSGGGGSQTVVTQEPSLSVSPGGTVTLTCGLSSGSVTSSNYPGWYQQKPGQAPRTLIYNTNSRYSGVPNRFSGSISGNKAALTITGAQPEDEADYYCALYMGSSSYNTVFGGGTHLTVL"
readout_number = 240000


Proceed to the following item.
## Task Record request: kon value, item 10D02 scFv-human Fc (Fc fusion, also called 010D02; not shown: CH2-CH3 constant domains of human IgG1 (pUPEX50 scFv-Fc fusion vector)) scFv: EVQLVESGGGLVQPGGSLRVSCAASGFTFSSYYMSWVRQAPGKGLEWVSGIVTGGGRTHYTDSVKGRFTITRDNAKNTLYLQMNSLRPEDTALYYCARVNGVVTNYDYWGQGTQVTVSSGGGGSGGGGSGGGGSQAVLTQPPSVSGSPGKTVTISCAGTSSDVGYGNYVSWYQQLPGMAPKLLIYDVNKRASGITDRFSGSKSGNTASLTISGLQSEDEADYFCASYRSPNNVVFGQGTHLTVL
## Result 450000
